# Tested system: human F508del-CFTR (Homo sapiens, UniProt P13569, DEL508-508)
# Sequence (P13569 with tags, fused parts or gaps DEL508-508): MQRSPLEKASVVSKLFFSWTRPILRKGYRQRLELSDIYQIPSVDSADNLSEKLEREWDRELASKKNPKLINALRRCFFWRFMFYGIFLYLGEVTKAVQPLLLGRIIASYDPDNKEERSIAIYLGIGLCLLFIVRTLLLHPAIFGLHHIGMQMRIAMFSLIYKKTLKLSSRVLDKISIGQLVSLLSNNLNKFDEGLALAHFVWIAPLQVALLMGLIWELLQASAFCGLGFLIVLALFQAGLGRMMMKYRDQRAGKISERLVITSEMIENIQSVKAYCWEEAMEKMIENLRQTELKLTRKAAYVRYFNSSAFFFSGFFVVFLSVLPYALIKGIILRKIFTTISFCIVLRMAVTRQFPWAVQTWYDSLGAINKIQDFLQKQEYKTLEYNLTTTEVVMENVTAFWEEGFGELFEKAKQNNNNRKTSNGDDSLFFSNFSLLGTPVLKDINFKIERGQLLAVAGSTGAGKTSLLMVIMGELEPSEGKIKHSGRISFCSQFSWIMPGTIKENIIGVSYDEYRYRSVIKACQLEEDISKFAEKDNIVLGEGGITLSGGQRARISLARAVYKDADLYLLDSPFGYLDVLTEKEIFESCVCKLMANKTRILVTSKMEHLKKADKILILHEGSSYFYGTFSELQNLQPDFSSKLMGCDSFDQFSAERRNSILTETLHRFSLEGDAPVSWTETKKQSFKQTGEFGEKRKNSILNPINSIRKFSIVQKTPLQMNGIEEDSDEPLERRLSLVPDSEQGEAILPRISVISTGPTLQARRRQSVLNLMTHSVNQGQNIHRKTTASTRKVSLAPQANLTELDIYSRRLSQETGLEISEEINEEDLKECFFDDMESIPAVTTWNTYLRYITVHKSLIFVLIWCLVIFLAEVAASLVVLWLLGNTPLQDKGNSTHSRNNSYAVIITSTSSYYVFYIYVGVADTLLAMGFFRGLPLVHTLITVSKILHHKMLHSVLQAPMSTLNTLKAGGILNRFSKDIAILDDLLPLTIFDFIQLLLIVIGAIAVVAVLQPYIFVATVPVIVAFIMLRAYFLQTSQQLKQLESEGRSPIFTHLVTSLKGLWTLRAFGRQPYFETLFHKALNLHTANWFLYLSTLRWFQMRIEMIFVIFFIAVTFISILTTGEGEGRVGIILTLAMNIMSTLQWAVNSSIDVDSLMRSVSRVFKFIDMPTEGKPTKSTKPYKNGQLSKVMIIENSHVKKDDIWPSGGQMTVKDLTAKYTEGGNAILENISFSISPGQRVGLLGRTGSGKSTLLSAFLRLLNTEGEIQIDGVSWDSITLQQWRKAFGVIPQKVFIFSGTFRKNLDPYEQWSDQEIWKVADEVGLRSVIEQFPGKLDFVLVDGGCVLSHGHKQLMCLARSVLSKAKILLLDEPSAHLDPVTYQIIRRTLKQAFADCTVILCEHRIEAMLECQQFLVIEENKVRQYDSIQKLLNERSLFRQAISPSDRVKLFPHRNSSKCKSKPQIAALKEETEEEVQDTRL
# Assay notes: F508del-CFTR cell surface expression (corrector activity), DiscoveRx ß-galactosidase complementation chemiluminescence assay in recombinant U2OS cell line;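 also: U2OS cells co-expressing ProLink-tagged F508del-CFTR and a membrane-anchored enzyme acceptor, where more surface CFTR restores β-galactosidase activity measured by chemiluminescence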
# Measurement context: U2OS, in relation to Emax of corrector lumacaftor (=100%); arithmetic mean values
Listing of entries alongside the reported Emax.
Only the number, expressed in %, is required.

## Input Dear colleague, please send me the reported Emax for CC(C)C[C@H]1C(=O)N2CCCC[C@@H]2C(=O)N[C@H](Cc2ccccc2)COc2ccc3ncccc3c2C(=O)N[C@H](C(=O)NCCc2cc(C3CC3)no2)CC(=O)N1C when you can.
## Output 304

Now turn to the next compound.
## Input Report Emax for COc1cccc(CCNC(=O)[C@@H]2CC(=O)N(C)[C@@H](CC(C)C)C(=O)N3CCN(S(=O)(=O)c4cccc(OC(F)(F)F)c4)C[C@@H]3C(=O)N[C@H](Cc3ccccc3)COc3ccc4ccccc4c3C(=O)N2)c1
## Output 239

Cited source: patent US20240208992A1
